Parameter pKi: see the listing below.
target: Mitogen-activated protein kinase kinase kinase kinase 1 (Homo sapiens, UniProt Q92918); assay: Lantha Binding Assay
Sequence (Q92918 whole entry): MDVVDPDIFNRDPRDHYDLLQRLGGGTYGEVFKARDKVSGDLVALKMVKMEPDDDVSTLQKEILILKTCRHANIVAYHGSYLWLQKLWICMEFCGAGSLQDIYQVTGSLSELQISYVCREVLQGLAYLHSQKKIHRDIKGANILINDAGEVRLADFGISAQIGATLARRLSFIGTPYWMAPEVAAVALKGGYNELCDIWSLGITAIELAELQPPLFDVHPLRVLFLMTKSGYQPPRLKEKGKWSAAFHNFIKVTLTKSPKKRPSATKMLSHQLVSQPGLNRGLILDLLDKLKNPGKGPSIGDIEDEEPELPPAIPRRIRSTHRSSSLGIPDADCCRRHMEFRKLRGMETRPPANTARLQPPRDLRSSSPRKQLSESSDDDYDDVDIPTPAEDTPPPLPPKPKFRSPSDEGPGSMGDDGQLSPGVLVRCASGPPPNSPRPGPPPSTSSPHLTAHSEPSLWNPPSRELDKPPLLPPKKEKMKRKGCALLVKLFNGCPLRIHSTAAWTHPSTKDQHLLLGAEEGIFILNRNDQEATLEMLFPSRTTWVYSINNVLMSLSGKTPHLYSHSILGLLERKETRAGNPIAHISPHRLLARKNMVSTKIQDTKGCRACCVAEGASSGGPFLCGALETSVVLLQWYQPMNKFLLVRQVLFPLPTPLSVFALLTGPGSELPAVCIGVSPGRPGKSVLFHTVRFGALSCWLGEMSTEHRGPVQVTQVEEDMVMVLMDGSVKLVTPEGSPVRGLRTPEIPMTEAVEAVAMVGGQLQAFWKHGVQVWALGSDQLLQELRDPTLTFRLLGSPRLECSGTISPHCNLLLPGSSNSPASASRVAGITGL
Field pKi (float): negative decimal logarithm of the concentration in molar.

- CC(C)NC(=O)Nc1cc2cc(-c3cnn(C)c3)cc(N)c2nn1: 7.68

Lab note: next compound to report on.
Prompt line: Quick check: pKi on Mitogen-activated protein kinase kinase kinase kinase 1 (Homo sapiens, UniProt Q92918), item CCn1cc(-c2cc(N)c3nnc(NC(=O)[C@@H]4C[C@@H]4F)cc3c2)cn1 ?
Response line: 7.08
